Test system: c-Abl (mouse)
Assay: phosphorylation enrichment, bacterial display (enrichment ratio); higher = better substrate or ligand; peptides without Tyr show the background
Each item that follows carries a reported phosphorylation enrichment.

LTFPDYLPCSV [SAG_Y129] :: 1.13
IVGLLYRLLTE [SETX_Y1978] :: 0.733
CTTIHDNYMCN [TP53_Y234_Y234D] :: 0.551
GGQVFYNSEYG [FLT4_Y1333] :: 0.497
EVDGLYREAPI [MYL12B_Y143_E141G] :: 0.662

Field: next sequence
(Q) Requested field: phosphorylation enrichment. Item: VKPENYRRLDV [VHL_Y175_I180V]
(A) 0.814

###

Molecular target: Grb2 SH2 (UniProt P62993)
Sequence (P62993 whole entry, looked up): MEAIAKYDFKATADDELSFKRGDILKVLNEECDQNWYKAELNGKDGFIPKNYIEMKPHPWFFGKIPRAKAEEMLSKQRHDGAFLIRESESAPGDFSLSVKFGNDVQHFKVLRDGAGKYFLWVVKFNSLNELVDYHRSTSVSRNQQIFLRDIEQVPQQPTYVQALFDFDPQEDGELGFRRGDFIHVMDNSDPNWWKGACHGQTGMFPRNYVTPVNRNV
Assay: SH2 binding enrichment of the phosphorylated peptide, bacterial display (enrichment ratio); higher = better substrate or ligand; peptides without Tyr show the background
Outcome label depends on SH2 binding enrichment relative to 0.9: at/above gives rule met, below gives rule not met.

Some entries whose results are on file:
KWRGQYDVAIE [BTK_Y425_K430E] :: rule met
GGGGSYNVFGN [HNRNPA1_Y312_D314V] :: rule not met

(Q) Reported SH2 binding enrichment reaches at least 0.9 for FAKTQYPDVYA [CRX_Y63] ?
(A) rule met

(Q) Reported SH2 binding enrichment reaches at least 0.9 for MGIMLYGVDSR [PKD1_Y3143_V3138M] ?
(A) rule not met

(Q) Reported SH2 binding enrichment reaches at least 0.9 for SASSSYSRSRS [SRRM4_Y549_R547S] ?
(A) rule met

(Q) Reported SH2 binding enrichment reaches at least 0.9 for PQQLWYTHEKK [UBTF_Y207] ?
(A) rule met

(Q) Reported SH2 binding enrichment reaches at least 0.9 for TCRPPYYHRNC [HGD_Y333_F329C] ?
(A) rule met

(Q) Reported SH2 binding enrichment reaches at least 0.9 for GPGSGYTNIMR [PKLR_Y564_R559G] ?
(A) rule met

(Q) Reported SH2 binding enrichment reaches at least 0.9 for KVMANYVFKAG [MAML2_Y513_M514V_YF] ?
(A) rule met

(Q) Reported SH2 binding enrichment reaches at least 0.9 for HLITAYRAHGF [PDHA1_Y118] ?
(A) rule met

(Q) Reported SH2 binding enrichment reaches at least 0.9 for KLFFIYTSGTT [SLC27A4_Y245_YF] ?
(A) rule not met

(Q) Reported SH2 binding enrichment reaches at least 0.9 for NPQKSYFICLY [WAS_Y83_R86C] ?
(A) rule met

(Q) Reported SH2 binding enrichment reaches at least 0.9 for KLQKKYGPISS [CYP17A1_Y60_Y64S] ?
(A) rule not met

(Q) Reported SH2 binding enrichment reaches at least 0.9 for HKLSSYEYDFE [BTK_Y40_Y39S] ?
(A) rule not met

###

Target: Fyn (UniProt P06241)
Sequence (P06241 whole entry, looked up): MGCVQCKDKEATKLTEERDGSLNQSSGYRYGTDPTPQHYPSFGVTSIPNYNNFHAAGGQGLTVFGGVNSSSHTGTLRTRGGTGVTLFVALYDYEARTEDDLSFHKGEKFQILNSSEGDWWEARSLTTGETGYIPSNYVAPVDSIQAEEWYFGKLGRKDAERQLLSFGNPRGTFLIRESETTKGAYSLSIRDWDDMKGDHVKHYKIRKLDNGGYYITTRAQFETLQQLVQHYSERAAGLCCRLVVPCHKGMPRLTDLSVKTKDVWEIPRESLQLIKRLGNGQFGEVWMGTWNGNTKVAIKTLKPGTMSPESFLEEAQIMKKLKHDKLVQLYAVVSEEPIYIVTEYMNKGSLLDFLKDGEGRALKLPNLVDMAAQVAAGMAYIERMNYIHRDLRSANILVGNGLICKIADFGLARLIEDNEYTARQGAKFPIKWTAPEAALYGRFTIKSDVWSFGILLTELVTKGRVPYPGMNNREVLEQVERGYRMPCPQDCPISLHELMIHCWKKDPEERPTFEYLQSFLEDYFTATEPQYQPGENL
Assay: phosphorylation enrichment, bacterial display (enrichment ratio); higher = better substrate or ligand; peptides without Tyr show the background
MEASURED_ATTRIBUTE: phosphorylation enrichment
Form rule: numeric answer, no unit written next to it.

Example sequences with recorded phosphorylation enrichment:
SIKDKYVTVLY [KCNH2_Y611_A614V] :: 0.598
GSRGKYSSGFH [ATM_Y332_R337H] :: 0.421
HHIDYYKKTTN [FGFR1_Y654] :: 0.711

(Q) Requested field: phosphorylation enrichment. Item: FNNPAYYVLEG [INPPL1_Y986]
(A) 1.75

(Q) Requested field: phosphorylation enrichment. Item: GFEVVYVTEPI [HSP90AB1_Y512_M513V]
(A) 0.424

(Q) Requested field: phosphorylation enrichment. Item: LVPPRYVRSEI [PKP2_Y194_A195V]
(A) 0.431

(Q) Requested field: phosphorylation enrichment. Item: GASWRYRSGVS [NEU1_Y242_G243R]
(A) 0.388

(Q) Requested field: phosphorylation enrichment. Item: NMHSTYAKLAA [SEC22B_Y193]
(A) 0.415

(Q) Requested field: phosphorylation enrichment. Item: ATGGFYSYGGG [KRT24_Y120]
(A) 2.39

(Q) Requested field: phosphorylation enrichment. Item: RAFSWYQHQRA [NDST1_Y714_YF]
(A) 0.769

(Q) Requested field: phosphorylation enrichment. Item: MSIWPYLQKID [MFSD8_Y63]
(A) 0.329

(Q) Requested field: phosphorylation enrichment. Item: EITSHYRHLLR [ZBTB46_Y14]
(A) 0.319

(Q) Requested field: phosphorylation enrichment. Item: QNTADYYDLYG [PTPN11_Y62_G60A]
(A) 4.14

(Q) Requested field: phosphorylation enrichment. Item: GNLLIYTDFGK [HGD_Y166_E168D]
(A) 4.75

(Q) Requested field: phosphorylation enrichment. Item: NLTLKYPIEHG [ACTA1_Y71_I66N]
(A) 0.47

(Q) Requested field: phosphorylation enrichment. Item: QQLVAYFSKHT [SRC_Y232_A237T_YF]
(A) 0.629
